- Test system: HCV replicon
- experiment.summary: HCV replicon system in Huh7 cells (real-time RT-PCR of replicon RNA)
- Type: cell-based
- test.settings: Hepatitis C virus, Huh-7; Huh7 replicon cells; calculated from ΔCt values of dilution series
Structures can show the parent of a compound that is named as a salt.
So I've got a bunch of compounds here, and I need their log10 of EC50 values.
Could you please treat all values as log10 of EC50 in µM?

INPUT: Missing value: log10 of EC50, HCV replicon, entry O=c1[nH]c(=O)n2c3c1nnn3C[C@H]1O[C@@H]2C2OC(=S)OC21 (some centres unmarked) . Fill in?
OUTPUT: 1.08

INPUT: Missing value: log10 of EC50, HCV replicon, entry O=c1[nH]c(=O)n2c3c1nnn3C[C@H]1O[C@@H]2C(O)C1O (some centres unmarked) . Fill in?
OUTPUT: 1.78

INPUT: Missing value: log10 of EC50, HCV replicon, entry CC1(C)OC2C(O1)[C@H]1Cn3nnc4c(=S)[nH]c(=O)n(c43)[C@@H]2O1 (some centres unmarked) . Fill in?
OUTPUT: 1.40

INPUT: Missing value: log10 of EC50, HCV replicon, entry Nc1cc(=O)n2c3c1nnn3C[C@H]1O[C@@H]2C(O)C1O (some centres unmarked) [72 (R = R′ = H)] . Fill in?
OUTPUT: 0.65

INPUT: Missing value: log10 of EC50, HCV replicon, entry Nc1nc(=O)n2c3c1nnn3C[C@H]1O[C@@H]2C(O)C1O (some centres unmarked) [75 (R = R′ = H), hydrochloride] . Fill in?
OUTPUT: -0.15
